Cited source: patent US20210380703A1

Assignment: determine reported optical density for the given binders.
experimental_system: T1, human ACVR2A (human, UniProt P27037 20-135, limits assumed); also: test concentration or dose not given here
T1 construct: also called activin receptor, type II A
T1 sequence (P27037 20-135 limits assumed): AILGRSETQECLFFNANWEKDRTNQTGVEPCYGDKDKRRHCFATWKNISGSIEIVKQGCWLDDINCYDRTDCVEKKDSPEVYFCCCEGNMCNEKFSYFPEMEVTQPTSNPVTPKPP
assay_method_text: ELISA
Note: unit OD is implicit; provide only the numeric part.

Data request, read-out optical density, for 376_H12 (antibody, V domains shown, Group II) VH: EVQLLESGGGLVQPGGSLRLSCAASGFTFSDYGMHWVRQAPGKGLEWVASINYNGGYTSYADSVKGRFTISRDNSKNTLYLQMNSLRAEDTAVYYCARAATWHDTHLDYWGQGTLVTVSS VL: DIQMTQSPSSLSASVGDRVTITCRASQSIITYLNWYQQKPGKAPKLVIYAATSRASGVPSRFSGSGSGTDFTLTISSLQPEDFATYYCQQSYESPLTFGGGTKVEIK
3.23

And 369_G10 (antibody, V domains shown, Group I) VH: EVQLLESGGGLVQPGGSLRLSCAASGFTFSSYGMHWVRQAPGKGLEWVASINYNGGYTSYADSVKGRFTISRDNSKNTLYLQMNSLRAEDTAVYYCARAANWHDTALDYWGQGTLVTVSS VL: DIQMTQSPSSLSASVGDRVTITCRASQSILSYLNWYQQKPGKAPKLVIYAATSRASGVPSRFSGSGSGTDFTLTISSLQPEDFATYYCQQSYDSPLTFGGGTKVEIK ?
3.37
